This listing pairs compounds with measured inhibition.
Molecular target: Inhibitor of nuclear factor kappa-B kinase subunit alpha (Homo sapiens);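 also: mean inhibition of IKKA, from the GSK PKIS data set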
Conditions: at 1 µM
resultType: inhibition (%)

>>> df
                                  cpdsmiles                                targetdesc  resulttype    val
0  CCc1ccc(Oc2nccc(-c3c(-c4ccc(F)cc4)ncn3C3CCNCC3)n2)cc1  Inhibitor of nuclear factor kappa-B kinase subunit alpha (Homo sapiens)  inhibition  -1.04
1  CS(=O)(=O)CCNCc1ccc(-c2ccc3ncnc(Nc4ccc(OCc5ccccc5)c(Br)c4)c3c2)o1  Inhibitor of nuclear factor kappa-B kinase subunit alpha (Homo sapiens)  inhibition   1.56
2  c1ccc(-c2n[nH]cc2-c2ccnc(-c3ccc(OCCN4CCOCC4)cc3)c2)nc1  Inhibitor of nuclear factor kappa-B kinase subunit alpha (Homo sapiens)  inhibition  -8.48
3  Fc1ccc(-c2ncn(C3CCNCC3)c2-c2ccnc(Oc3ccc(Oc4ccccc4)cc3)n2)cc1  Inhibitor of nuclear factor kappa-B kinase subunit alpha (Homo sapiens)  inhibition   5.03
